System: K4 kissing-loop RNA reporter;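 note: bound reporter read as fluorescence of individual clusters on recovered sequencing chips by microscopy, with normalized cluster intensities fitted with a binding model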
experiment: apparent KD of K4 kissing-loop reporter; higher = weaker reporter binding
measurementConditions: Eterna round: R107; input ligand: theophylline 20 uM
Recorded apparent KD of K4 kissing-loop reporter values for a group of sequences are listed next.
Record the value in nM, omitting the unit from your answer.

In the examples that follow, each entry is paired with its recorded apparent KD of K4 kissing-loop reporter.
Query: GET /values?readout=apparent KD of K4 kissing-loop reporter&item= CAUAGACAAGUGAUGUUUGUCAUAACCGAAGGAGCGUCUUUAAAGACAGGUAGGUCGCGGAUUAGUUAAGUUAUGAUUCUUUAUG [#19 K4 Arginine A Same State]
Response: 659

Query: GET /values?readout=apparent KD of K4 kissing-loop reporter&item= "UCCUGCAAUCGGCCACGAAAGUGGAUGGAUACCAGAGUCGAAAGACUCCCUUGGCAGCCAGUGAUGUUGGAAGCAGGUAAAUAAA"
Response: 538

Query: GET /values?readout=apparent KD of K4 kissing-loop reporter&item= AGGCACGAGCAAGGAUAUCGAGUGGAGUGAUGUUCUGCCGACCCAGGACCGAAAGGUCCUGGGUCGCGAGAAGGUGCUCGUGCCU [#2 Same State - FMN A Attempt #8 (HarryS)]
Response: 568

Query: GET /values?readout=apparent KD of K4 kissing-loop reporter&item= AGUGAUGUGGGAAGGAGCGCUACAAGACUUCAGUGAUGUUGAAGUGAUGAUUUAGUGUUGUAGCAGGUAGGUCGCCUAGAUGUUA [KL-XARG-B9]
Response: 36.2

Query: GET /values?readout=apparent KD of K4 kissing-loop reporter&item= GUAUGUGAUGGAAACAUCGCAUACACUGAUACCAGUAUCGAUAGAUACCCUUGGCAGCAGAAAACUGCAAUUGGAGUGAUGUUCC [Ex Theophylline A K4 1]
Response: 216

Query: GET /values?readout=apparent KD of K4 kissing-loop reporter&item= AAUUCAGCUAGUGAUGUUAGCGUAGAGUGCAAGGAUAUCCCUGUCAGGAGAAGGUGCGUAGAACGUUUGCCAUCAGAUUGUCCCA [theeternabot_exclusion_KL_FMN_A_48]
Response: 104

Query: GET /values?readout=apparent KD of K4 kissing-loop reporter&item= UGUCAUUGGUCGGCCGCCACUUCGUGUAGAGUGAUGUUUUGUAGGACGGAUCGAAAGAUCUGUCGAAGGACCGGGACCGAUGACU [FiskerMod 18 - Jieux - Same State - Tryptophan B]
Response: 336

Query: GET /values?readout=apparent KD of K4 kissing-loop reporter&item= CCGAUGGGUACAGGAUAUGCCAGUGAUGUUGGUUUAGAUGGACCCAUAAGGAGACACCAGACGGAGGCAGAAGGGUAGCAAGGGA [Isonanti]
Response: 118

More entries:
Query: GET /values?readout=apparent KD of K4 kissing-loop reporter&item= GGGCGCGGCGCGGCCGCCACUGGGCCUGGGCGCGCGCCGAGUGAUGUUCGCCUGCGGCUGGGUCGUAGGACCGGGUGCCGGCUGG [BDazzled 1]
Response: 376

Query: GET /values?readout=apparent KD of K4 kissing-loop reporter&item= CCAUUCUUUUACGAUACCAGUUUAAUAUAUUUAUUCAUAACCCUUGCCGAGUGAUGUUCGGACCCUUGGCAGCGUUUGCGAGAGG [lliltkmullin]
Response: 404

Query: GET /values?readout=apparent KD of K4 kissing-loop reporter&item= GUAUAAGUGGGCGAUACCAGCUGUCGGUAGUGAUGUUAUUCAGCAGUCAGGAAGUUCGCUAGCCCUUGGCAGCGCCAGUGGUGAC [theeternabot_exclusion_KL_Theo_B_19]
Response: 351

Query: GET /values?readout=apparent KD of K4 kissing-loop reporter&item= UUUGUAUAGGGAAGGAGCGUGAAUGAUAAUGAAUAUAGUGAUGUUAUAUAGAAGAAAGAAUCACAGGUAGGUCGCCCGGAGGAGG [SSArgB.I]
Response: 456

Query: GET /values?readout=apparent KD of K4 kissing-loop reporter&item= UUAGAGAUCUCAGGAUAUCAGUGAUGUUGGUGUUAAGAUCUGAGAUAGAAUUCUAUCUCAGAUCAAUGAGAAGGGAGAUCUCAUU [AK3 Exc FMN B]
Response: 161

Query: GET /values?readout=apparent KD of K4 kissing-loop reporter&item= CGCAGUGAUGUUGCGAGUAGCUACAGGGAAGGAGCGUGCUAGAGCACAGGUAGGUCGCCCAGUGGCAGUGAUGUUGCCAAAGGGU [Exclusion ARginine A GF 17]
Response: 126

Query: GET /values?readout=apparent KD of K4 kissing-loop reporter&item= ACGUAUAUCAGAGGAUAUCGUAUUAAUAUUUUAUCUAUAUAUUAUAGCAGUGAUGUUGCAAUUAUUCGAGAAGGCUGAUUUACGA [JR_SSFMNB_Sub023]
Response: 194

Query: GET /values?readout=apparent KD of K4 kissing-loop reporter&item= GCAGUGAUGUUGCGGAUGUACAGUGGGAUACGAGGACCGGUACGGCCGCCACUCGUACAGAACAAGCUAAUACAUCGAUAGGUGA [XII]
Response: 373

Query: GET /values?readout=apparent KD of K4 kissing-loop reporter&item= CAUACGCAUGGAGGAUAUGGGAUUACUCAUAUUACCCUGUAACAGGUAUCUCAGUGAUGUUGAGACUCAGAAGGCCAUGUGUAUG [Ex FMN B 23]
Response: 370

Query: GET /values?readout=apparent KD of K4 kissing-loop reporter&item= UAAAACGCUUGAAUAACAAGCGAAAAUUCGCGAGGACCGGUACGGCCGCCACUCGCUAACUGCGAGUGAUGUUCGAUAAUAAAAU [Mat - Mod of OpenEnded 3 - D4]
Response: 188

Query: GET /values?readout=apparent KD of K4 kissing-loop reporter&item= UAGCGUCUGCGAGGAUAUCGGAUUAGAGUGAUGUUCUAAAGACGCCCAGUGAUGUUGGAUGCGAUACGAGAAGGCGCUGGGCGCG [Same State FMN B GF7]
Response: 332

Query: GET /values?readout=apparent KD of K4 kissing-loop reporter&item= "AAGCAGUCACUCGAACCCAUCGAAGAUGGUCGAGGACCGGUACGGCCGCCACUCGGAGUGAUGUUCCGCAGACUGCAAAAUAAAA"
Response: 511
